Hello, the source for this data is ChEMBL document CHEMBL4513216, in case you need it.

# assay notes: Toxicity liver stage against HepG2, at 10uM
# Assay type: cell-based
# Set-up: test concentration 10 uM, cell line HepG2-A16-CD81EGFP
# protocol conditions: human, HepG2-A16-CD81EGFP cells; read-out: INHIBITION
result type: cytotoxicity at 10 µM (%)
Reply numerically in %, unit not repeated.

Item: O=C(NC1CCCN(Cc2c(F)cccc2F)C1)c1cc[nH]n1 (stereo unspecified) | cytotoxicity at 10 µM: 5.72

Lookup result for `COc1ccccc1C(=O)NS(=O)(=O)c1cncc(Br)c1` ; measured cytotoxicity at 10 µM: -6.05

Briefly, cytotoxicity at 10 µM measured for Cc1nc(C2CCCN2C(=O)Cc2ccc(F)cc2)nc(O)c1C (stereo unspecified) : -30.4

Recorded cytotoxicity at 10 µM (molecule Cc1nc(Nc2ncc(C)s2)cc(C2CCCN2S(C)(=O)=O)n1 (stereo unspecified) ): -37.6

Entry `CN(C)S(=O)(=O)N1C[C@@H]2C[C@H](C(=O)Nc3cccnc3)[C@H](C1)O2` ; cytotoxicity at 10 µM = -71.7

Consider COCCOc1cccc(CNCC2CN(C)CCO2)c1 (stereo unspecified) . Its measured cytotoxicity at 10 µM is -14.8

Notebook: Cn1cccc1-c1cc(C(=O)N2CCCC2C(F)(F)F)[nH]n1 (stereo unspecified) , cytotoxicity at 10 µM read as -0.968

# cytotoxicity at 10 µM (molecule: CSCC(C)(O)CNS(=O)(=O)c1ccc(Br)cc1 (stereo unspecified) ) is -1.61

Reported cytotoxicity at 10 µM of CCCc1cc(NCCC2CCCOC2)n2nccc2n1 (stereo unspecified) : 3.63

# cytotoxicity at 10 µM (molecule: CCCn1nnnc1COC(=O)C1Cc2cc(Cl)ccc2O1 (stereo unspecified) ) is -5.68

# molecule `c1cc(CN2C[C@@H]3OCCN(CCN4CCCC4)[C@@H]3C2)co1` ; its cytotoxicity at 10 µM = 6.13

* * *

Assignment: determine reported cytotoxicity at 10 µM for the given compounds.
# assay notes: Toxicity liver stage against HepG2, at 10uM
# Assay type: cell-based
# Design: test concentration 10 uM, cell line HepG2-A16-CD81EGFP
# protocol conditions: human, HepG2-A16-CD81EGFP cells; read-out: INHIBITION
# number only, unit % dropped from output

Reported cytotoxicity at 10 µM of `CCOC(=O)CNC(=O)NCc1cccn1Cc1cccc(C)c1` : 9.24

Reported cytotoxicity at 10 µM for OCCC1CN(c2ncnc3[nH]cnc23)CCN1Cc1ccccc1 (stereo not drawn) was 11.9

The recorded cytotoxicity at 10 µM for `CCNc1cc2c(nn1)CCN(C(=O)c1cc3cc(C)ccc3o1)C2` is -18.7

Entry under test: `Cc1nn(C)c(C)c1S(=O)(=O)NCC1CCN(c2ccccn2)CC1` . Its cytotoxicity at 10 µM was 6.5

For record CCC(C)N1C(=O)c2ccc(C(=O)NCCc3c[nH]cn3)cc2C1=O (stereo not drawn) the listed cytotoxicity at 10 µM is -8.64

The reported value for `c1ccc2c(c1)CC(N1CCCN(Cc3cccc4nonc34)CC1)C2` in terms of cytotoxicity at 10 µM is -2.37

Memo: `CC(C)c1nnc2n1CCN(C(=O)COc1ccc(C(N)=O)cc1)C2` , reported cytotoxicity at 10 µM: 0.0102

Short answer for `Cc1cc(C(=O)N2CC[C@H](N3CCN(C)CC3)[C@H](CCCO)C2)n(C)n1` : cytotoxicity at 10 µM was -12.4

Given item `Cc1cccc2c1nc(CCO)n2-c1ccc(NS(C)(=O)=O)nc1` , the value recorded as its cytotoxicity at 10 µM is 2.34

# cytotoxicity at 10 µM of `COC(=O)CNC(=O)C1(NC(=O)c2ccc3[nH]ncc3c2)CCCC1` = -2.23

According to the records, this compound `CC(=O)N1CCO[C@@H]2CN(S(=O)(=O)c3ccc(C)cc3)CC[C@@H]2C1` displays cytotoxicity at 10 µM of 8.28

Notebook: `COc1ccc(-n2nnnc2C2(NCc3ccco3)CCCCC2)cc1` , cytotoxicity at 10 µM read as 9.65

Item: `CCc1ccc(C(=O)N(c2cccnc2)C(C)C)cc1S(C)(=O)=O` | cytotoxicity at 10 µM: 2.62

Item: O=C(NC1CCS(=O)(=O)C1)c1ccc(-c2ccc(F)cc2)s1 (stereo not drawn) | cytotoxicity at 10 µM: -2.32

cytotoxicity at 10 µM in this record for CC(C)N1CCC(Cc2cncc(-c3cc(F)ccc3C(=O)O)n2)C1 (stereo not drawn) : -6.88

Summary for this compound, O=C(c1cc[nH]n1)N1CCCC1c1cnccn1 (stereo not drawn) : cytotoxicity at 10 µM is -25.4

Measured cytotoxicity at 10 µM of Cc1noc(C)c1-c1ccc(C2CCCN2C(=O)c2ccncn2)nc1 (stereo not drawn) : -4.45

Notebook: `COC(=O)c1ccc(NS(=O)(=O)c2cnc(NC(C)=O)s2)cc1` , cytotoxicity at 10 µM read as 9.35

Form field cytotoxicity at 10 µM, entry `CCOC(=O)NCCC(=O)NCc1ccnc(Oc2ccc(F)cc2)c1` : 6.74

cytotoxicity at 10 µM recorded for this compound, CC(C)N1CCC(O)(CNC(=O)CC2OCCc3ccccc32)CC1 (stereo not drawn) , is 5.02

Please fill in: cytotoxicity at 10 µM reported for CN(CC(=O)N1CCCC1Cn1cccn1)c1cnccn1 (stereo not drawn) = -5.1

So for `Cc1nc[nH]c1CN1C[C@H]2CC[C@@H](C1)N(C(=O)CCn1cncn1)C2` , the logged cytotoxicity at 10 µM turned out to be 1.15

# cytotoxicity at 10 µM of `COCCN1CC2(CCOCC2)c2cc(NC(=O)C3CC=CC3)ccc21` = -109

* * *

# assay notes: Toxicity liver stage against HepG2, at 10uM
# Type: cell-based
# Set-up: test concentration 10 uM, cell line HepG2-A16-CD81EGFP
# protocol conditions: human, HepG2-A16-CD81EGFP cells; read-out: INHIBITION
Provide the reported cytotoxicity at 10 µM of each item.
// return numeric value only (unit: %, not printed)

So for `COc1ccccc1N1CCN(c2nc(N)nc3[nH]cnc23)CC1` , the logged cytotoxicity at 10 µM turned out to be 2.77

Notebook: `CC(C)N(C)C(=O)c1ccc(CNc2ccncc2Cl)cc1` , cytotoxicity at 10 µM read as 55.8

Looking up `CCN(C(=O)CN1CCC(c2cc3ccccc3[nH]2)CC1)C1CC1` , I found its cytotoxicity at 10 µM recorded as 0.99

The value of cytotoxicity at 10 µM measured for the compound `CC(=O)N1CCN(CC(=O)NCCCN(C)c2ccccc2)CC1` turned out to be 8.21

Lookup result for `CCn1nc2c(cc1=O)CN(CCOc1cccc(C#N)c1)CC2` ; measured cytotoxicity at 10 µM: 4.67

Per the records, this compound ( `COc1ccc(S(=O)(=O)N2CCOC[C@H](Oc3cnccn3)C2)cc1` ) has cytotoxicity at 10 µM equal to 10.4

Item: COCC(=O)N1CCC2(CC(=O)N(c3cccc(F)c3)C2)C1 (centres undefined) | cytotoxicity at 10 µM: -156

cytotoxicity at 10 µM in this record for CC(CCc1ccccc1F)C(=O)NS(C)(=O)=O (centres undefined) : 3.12

So for `Cc1ccccc1CNc1ccc(S(N)(=O)=O)c(C(F)(F)F)c1` , the logged cytotoxicity at 10 µM turned out to be 22.2

The reported value for `CN1CCO[C@@H]2CN(C(=O)COc3cccc(Cl)c3)C[C@@H]2C1` in terms of cytotoxicity at 10 µM is -9.58

Looking up `COCc1ccc(C(=O)N2CCN(CCS(C)(=O)=O)CC2)cc1` , I found its cytotoxicity at 10 µM recorded as -1.33

Value of cytotoxicity at 10 µM reported for the compound `Cc1ncc2c(c1CNC(=O)C1(c3ccc(F)cc3)CC1)CCNC2` is -46.6

So, `CC(C)CCC(=O)N1C[C@H]2CCN[C@H]2C1` ? Its cytotoxicity at 10 µM was 2.82

Kindly note the recorded cytotoxicity at 10 µM for `CCc1cnc(NCCSc2cnn[nH]2)nc1` , which is -10.4

Form: compound = Cc1cnc(N2CCC3(CCCCN3C)C2)nc1 (centres undefined) ; cytotoxicity at 10 µM = 3.29

The value of cytotoxicity at 10 µM measured for the compound `CCc1nccn1-c1nccnc1C1CCN(C(=O)COC)CC1` turned out to be -19.7

In plain terms, `CC(C)c1noc(CCC(=O)N2CCSCC2)n1` has a documented cytotoxicity at 10 µM of -2.99

// cytotoxicity at 10 µM lookup, compound = CCNC(=O)N1CCC(c2ccccc2)C1 (centres undefined) , result: -3.57

Memo: O=C(Nc1cccc(C(=O)OCC2CCCN2)c1)c1ccoc1 (centres undefined) , reported cytotoxicity at 10 µM: -3.06

Form field cytotoxicity at 10 µM, entry `Cc1cc(C)cc(-c2ccc(CC3(C(=O)O)CCOCC3)cc2)c1` : 4.81

Input `Cc1ncsc1-c1nnc(C2CCN(Cc3ccc(F)cc3)CC2)o1` . Output cytotoxicity at 10 µM: 3.52

Entry `CCS(=O)(=O)CCNC(=O)NCc1ccccc1-n1cccn1` , cytotoxicity at 10 µM reported as 4.87

Noted for `Cc1nc(C)c(Cn2ccnc2-c2cc(CN(C)C)cs2)s1` : its cytotoxicity at 10 µM reads 1.99

`CC(C)(C)OC(=O)N1CSC[C@@H]1C(=O)NCc1cccc(C#N)c1` yielded cytotoxicity at 10 µM of -5.88
